// reported IC50 per item
Target Or System: ROCK2 (Homo sapiens (Human))
Test Method Notes: biochemical

Previously resolved entries follow.
>>> result("COc1cc(F)cc(NC2CCN(c3ccc(-c4cn[nH]c4)c(C)n3)C2=O)c1 (single isomer, unassigned) [Example 192]")
"10 to 100 nM"
>>> result("COc1cccc(NC2CCN(c3ccc(-c4cn[nH]c4)c(OC)n3)C2=O)c1 (single isomer, unassigned) [Example 196]")
"< 10 nM"
>>> result("COc1ccc(F)c(NC2CCN(c3ccc(-c4cn[nH]c4)cc3F)C2=O)c1 (single isomer, unassigned) [Example 341]")
"10 to 100 nM"

The value of IC50 measured for the compound CCc1cc(N2CCC(Nc3cc(F)cc(OC)c3)C2=O)ccc1-c1cn[nH]c1 (single isomer, unassigned) [Example 245] turned out to be 10 to 100 nM

The value of IC50 measured for the compound COc1cccc(NC2CCN(c3ccc(-c4cn[nH]c4)c(OC(F)F)c3)C2=O)c1 (single isomer, unassigned) [Example 114] turned out to be 10 to 100 nM

The value of IC50 measured for the compound COc1nc(N2CCC(Nc3cccc(-c4nnn[nH]4)c3)C2=O)ccc1-c1cn[nH]c1 (racemic) [Example 266] turned out to be 10 to 100 nM

The value of IC50 measured for the compound COc1cc(N2CCC(Nc3cc(F)cc(F)c3)C2=O)ccc1-c1cn[nH]c1 (single isomer, unassigned) [Example 146] turned out to be < 10 nM

The value of IC50 measured for the compound COc1cccc(NC2CCN(c3ccc(-c4cn[nH]c4)cc3)C2=O)n1 (racemic) [Example 223] turned out to be 10 to 100 nM

The value of IC50 measured for the compound CNc1nc(N2CCC(Nc3cc(F)cc(OC)c3)C2=O)ccc1-c1cn[nH]c1 (single isomer, unassigned) [Example 251] turned out to be 10 to 100 nM

The value of IC50 measured for the compound O=C1C(Cc2c(F)cccc2F)CCN1c1ccc(-c2cn[nH]c2)cc1 (centres unmarked) [Example 94] turned out to be 100 to 2200 nM

The value of IC50 measured for the compound COc1c(F)cccc1NC1CCN(c2ccc(-c3cn[nH]c3)c(OC(F)F)c2)C1=O (single isomer, unassigned) [Example 32] turned out to be 100 to 2200 nM

The value of IC50 measured for the compound COc1nc(N2CCC(N3CCC(N(C)C)CC3)C2=O)ccc1-c1cn[nH]c1 (racemic) [Example 276] turned out to be 100 to 2200 nM

The value of IC50 measured for the compound COc1cc(NC2CCN(c3ccc(-c4cn[nH]c4)c(F)c3F)C2=O)ccc1F (single isomer, unassigned) [Example 307] turned out to be 10 to 100 nM

The value of IC50 measured for the compound COc1cccc2c1N(C1CCN(c3ccc(-c4cn[nH]c4)cc3)C1=O)CC2 (single isomer, unassigned) [Example 52] turned out to be 100 to 2200 nM

---

Target Or System: UniProt O75116
Test Method Notes: biochemical
pIC50: −log10 of the molar value.
Attribute Measured: pIC50

Previously resolved entries follow.
>>> result("O=C1C(Nc2ccccc2)CCN1c1ccc(-c2cn[nH]c2)cc1 (centres unmarked) [Example 58]")
"7.00 to 8.00"
>>> result("COc1cc(F)cc(NC2CCN(c3ccc(-c4cn[nH]c4)c(F)c3F)C2=O)c1 (single isomer, unassigned) [Example 309]")
"7.00 to 8.00"
>>> result("COc1cccc(NC2CCN(c3ccc(-c4cn[nH]c4)c(CO)c3)C2=O)c1 (racemic) [Example 187]")
"5.66 to 7.00"
>>> result("COc1ccc(NC2CCN(c3ccc(-c4cn[nH]c4)c(OC)c3)C2=O)cc1F (single isomer, unassigned) [Example 141]")
"5.66 to 7.00"
>>> result("CCOc1cc(N2CCC(Nc3cccc(OC)c3)C2=O)ccc1-c1cn[nH]c1 (single isomer, unassigned) [Example 35]")
"7.00 to 8.00"
>>> result("COc1nc(N2CCC(N3CCOCC3)C2=O)ccc1-c1cn[nH]c1 (racemic) [Example 273]")
"7.00 to 8.00"
>>> result("COc1cccc(NC2CCN(c3ccc(-c4ccnc(N)c4)cc3)C2=O)c1 (single isomer, unassigned) [Example 77]")
"7.00 to 8.00"
>>> result("O=C1C(Nc2cccc(OC(F)F)c2)CCN1c1ccc(-c2cn[nH]c2)cn1 (single isomer, unassigned) [Example 321]")
"5.66 to 7.00"
>>> result("COc1nc(N2CCC(Nc3ccc4c(c3)CS(=O)(=O)C4)C2=O)ccc1-c1cn[nH]c1 (racemic) [Example 263]")
"5.66 to 7.00"
>>> result("COc1cc(NC2CCN(c3ccc(-c4cn[nH]c4)c(OCCN(C)C)c3)C2=O)ccc1F (racemic) [Example 346]")
"5.66 to 7.00"

The value of pIC50 measured for the compound CCc1nc(N2CCC(Nc3ccc(F)c(OCC4CC4)c3)C2=O)ccc1-c1cn[nH]c1 (single isomer, unassigned) [Example 212] turned out to be 5.66 to 7.00

The value of pIC50 measured for the compound COc1cccc(NC2CCN(c3ccc(-c4ccnc5[nH]ccc45)c(C)n3)C2=O)c1 (single isomer, unassigned) [Example 120] turned out to be 7.00 to 8.00

The value of pIC50 measured for the compound COc1cc(NC2CCN(c3ccc(-c4cn[nH]c4)nc3)C2=O)ccc1F (single isomer, unassigned) [Example 299] turned out to be 7.00 to 8.00

The value of pIC50 measured for the compound CCOc1cc(N2CCC(Nc3cc(OC)ccc3F)C2=O)ccc1-c1cn[nH]c1 (single isomer, unassigned) [Example 40] turned out to be 5.66 to 7.00

---

// reported pIC50 per item
Target Or System: ROCK2 (Homo sapiens (Human), UniProt O75116)
Sequence (O75116 whole entry, species assumed): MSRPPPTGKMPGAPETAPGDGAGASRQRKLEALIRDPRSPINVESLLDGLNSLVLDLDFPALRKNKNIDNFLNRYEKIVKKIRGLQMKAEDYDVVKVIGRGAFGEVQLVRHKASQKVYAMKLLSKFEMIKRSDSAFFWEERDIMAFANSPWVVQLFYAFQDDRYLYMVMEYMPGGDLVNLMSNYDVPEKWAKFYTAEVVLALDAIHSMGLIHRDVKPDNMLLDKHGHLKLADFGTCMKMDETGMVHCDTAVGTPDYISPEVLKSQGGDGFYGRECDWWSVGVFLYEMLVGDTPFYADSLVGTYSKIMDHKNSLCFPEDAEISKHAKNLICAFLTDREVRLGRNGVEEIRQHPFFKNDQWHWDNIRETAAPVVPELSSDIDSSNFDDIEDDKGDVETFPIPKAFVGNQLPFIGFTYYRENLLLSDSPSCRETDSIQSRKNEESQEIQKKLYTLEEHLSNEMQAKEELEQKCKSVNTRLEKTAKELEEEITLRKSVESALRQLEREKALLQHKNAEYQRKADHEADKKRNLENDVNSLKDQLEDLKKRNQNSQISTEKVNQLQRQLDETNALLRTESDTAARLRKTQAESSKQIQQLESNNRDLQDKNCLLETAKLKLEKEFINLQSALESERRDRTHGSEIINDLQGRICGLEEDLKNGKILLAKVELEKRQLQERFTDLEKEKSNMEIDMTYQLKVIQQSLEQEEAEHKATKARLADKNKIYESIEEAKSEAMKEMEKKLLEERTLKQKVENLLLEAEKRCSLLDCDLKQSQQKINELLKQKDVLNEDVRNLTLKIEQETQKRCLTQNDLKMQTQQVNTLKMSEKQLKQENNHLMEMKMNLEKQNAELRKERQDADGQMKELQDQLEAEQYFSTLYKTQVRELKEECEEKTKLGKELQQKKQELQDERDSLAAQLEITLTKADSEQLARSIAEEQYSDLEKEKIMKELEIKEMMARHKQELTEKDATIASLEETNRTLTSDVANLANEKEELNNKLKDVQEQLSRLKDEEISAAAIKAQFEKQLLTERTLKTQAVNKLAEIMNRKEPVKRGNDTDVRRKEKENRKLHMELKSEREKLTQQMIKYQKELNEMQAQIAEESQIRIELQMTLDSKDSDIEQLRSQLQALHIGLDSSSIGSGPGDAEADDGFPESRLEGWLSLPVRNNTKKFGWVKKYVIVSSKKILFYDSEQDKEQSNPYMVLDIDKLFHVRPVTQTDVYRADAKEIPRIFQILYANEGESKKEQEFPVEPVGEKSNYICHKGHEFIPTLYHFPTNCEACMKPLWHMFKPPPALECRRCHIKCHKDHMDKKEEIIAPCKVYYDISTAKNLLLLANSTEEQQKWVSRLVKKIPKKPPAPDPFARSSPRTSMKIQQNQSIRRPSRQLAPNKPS
Test Method Notes: biochemical
pIC50: −log10 of the molar value.

Previously resolved entries follow.
>>> result("O=C1C(Nc2ccccc2)CCN1c1ccc(-c2cn[nH]c2)c(F)c1 (single isomer, unassigned)")
"> 8.00"
>>> result("COc1cccc(N[C@@H]2CCN(c3ccc(-c4cn[nH]c4)cc3)C2=O)c1OC")
"5.66 to 7.00"
>>> result("O=C1C(Nc2cccc(OC(F)F)c2)CCN1c1ccc(-c2cn[nH]c2)cn1 (single isomer, unassigned) [Example 322]")
"7.00 to 8.00"
>>> result("COc1cccc(NC2CCN(c3ccc(-c4ccnc5[nH]ccc45)cc3)C2=O)c1 (single isomer, unassigned) [Example 81]")
"7.00 to 8.00"
>>> result("COc1cccc(NC2CCN(c3ccc(-c4cn[nH]c4)c(C)n3)C2=O)c1 (single isomer, unassigned) [Example 188]")
"7.00 to 8.00"

The value of pIC50 measured for the molecule O=C1C(Cc2ccccc2)CCN1c1ccc(-c2cn[nH]c2)cc1 (stereo not shown) turned out to be 5.66 to 7.00

The value of pIC50 measured for the molecule COc1cccc(NC2CCN(c3ccc(-c4ccnc5[nH]ccc45)c(C)n3)C2=O)c1 (single isomer, unassigned) [Example 119] turned out to be 5.66 to 7.00

---

Target Or System: ROCK2 (Homo sapiens (Human), UniProt O75116);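 further: rho kinase enzyme reaction halted with EDTA, phospho- and non-phospho peptide separated for read-out, kinase activity inhibition derived across a dose-response series, DMSO under 2%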
Test Method Notes: biochemical
pIC50: −log10 of the molar value. Counter-ions that a name gives are not always drawn.
// reported pIC50 per item

Previously resolved entries follow.
>>> result("O=C1[C@H](Nc2cccc(OCC3CC3)c2)CCN1c1ccc(-c2cn[nH]c2)cc1 (single isomer, unassigned)")
"> 8.00"
>>> result("COc1cc(NC2CCN(c3ccc(-c4cn[nH]c4)c(Cl)c3)C2=O)ccc1F (single isomer, unassigned) [Example 161]")
"> 8.00"
>>> result("COc1cc(NC2CCN(c3ccc(-c4cn[nH]c4)c(F)c3)C2=O)ccc1F (single isomer, unassigned)")
"> 8.00"
>>> result("COc1cc(N2CCC(Nc3cccc(OC(C)C)c3)C2=O)ccc1-c1cn[nH]c1 (centres unmarked) [Example 71, TFA]")
"7.00 to 8.00"
>>> result("COc1cccc(N(CCO)C2CCN(c3ccc(-c4cn[nH]c4)cc3)C2=O)c1 (centres unmarked)")
"7.00 to 8.00"

The value of pIC50 measured for the molecule COc1ccc(F)c(NC2CCN(c3ccc(-c4cn[nH]c4)c(C)c3)C2=O)c1 (single isomer, unassigned) turned out to be 7.00 to 8.00

The value of pIC50 measured for the molecule COc1cc(F)cc(NC2CCN(c3ccc(-c4cn[nH]c4)c(C(F)(F)F)c3)C2=O)c1 (single isomer, unassigned) [Example 370] turned out to be 7.00 to 8.00

The value of pIC50 measured for the molecule COc1nc(N2CCC(N3CCC(F)CC3)C2=O)ccc1-c1cn[nH]c1 (racemic) [Example 296, hydrochloride] turned out to be 7.00 to 8.00

The value of pIC50 measured for the molecule O=C1C(Cc2cccc(F)c2)CCN1c1ccc(-c2cn[nH]c2)cc1 (centres unmarked) turned out to be 5.66 to 7.00

The value of pIC50 measured for the molecule O=C1C(Nc2cccc(OCC(F)F)c2)CCN1c1ccc(-c2cn[nH]c2)cc1 (single isomer, unassigned) [Example 237] turned out to be > 8.00

The value of pIC50 measured for the molecule COc1nc(N2CCC(Nc3cc(C)nn3C)C2=O)ccc1-c1cn[nH]c1 (racemic) turned out to be 7.00 to 8.00

The value of pIC50 measured for the molecule CCc1cc(N2CCC(Nc3ccc(F)c(OC)c3)C2=O)ncc1-c1cn[nH]c1 (single isomer, unassigned) turned out to be 5.66 to 7.00

The value of pIC50 measured for the molecule COc1cccc(NC2CCN(c3ccc(-c4cn[nH]c4)c(C(O)C(F)(F)F)c3)C2=O)c1 (racemic) turned out to be 5.66 to 7.00

The value of pIC50 measured for the molecule COc1cccc(NC2CCN(c3ccc(-c4cn[nH]c4)c(F)c3F)C2=O)c1 (single isomer, unassigned) [Example 306] turned out to be > 8.00
